Tested on: KARN cells (Jurkat 2C4)
Assay: cells
Format: cell-based
Settings: Homo sapiens, Jurkat, read-out: Karn EC50 (nM) 5% NHS, 5% normal human serum; luciferase induction, 100% = 2 μM SAHA
test readout: EC50 (nM)
The figure you give is taken to be in nM; do not add the unit.

Known EC50 results, listed for orientation:
CCC(=O)CCCCC[C@H](NC(=O)C1=NOC2(CCN(CC3CC3)CC2)C1)c1ncc(-c2cc3ccc(C)nc3cc2OC)o1 [Compound 225] ... 247
CCC(=O)CCCCC[C@H](NC(=O)CC1CC2(C1)CN(C)C2)c1nnc(-c2cc3ccccc3nc2OC)o1 [Compound 308] ... 3700
CCC(=O)CCCCC[C@H](NC(=O)[C@H]1CC12CN(C)C2)c1ncc(-c2cc3ccc(C)nc3cc2OC)o1 (single isomer, unassigned) [Compound 230] ... 83
CCCC(=O)CCCCC[C@H](NC(=O)[C@H]1CC12CCN(CC1CC1)CC2)c1ncc(-c2cc3ccc(C)nc3cc2OC)[nH]1 [Compound 416] ... 15

stdin: Field: EC50 (KARN cells (Jurkat 2C4)). Entry: CCC(=O)CCCCC[C@H](NC(=O)[C@H]1CC[C@]2(CC1)OC(=O)c1ccncc12)c1ncc(-c2ccccc2)[nH]1 [Compound 376]
stdout: 3680

stdin: Please state recorded EC50 (tested on KARN cells (Jurkat 2C4)) of CCC(=O)CCCCC[C@H](NC(=O)[C@H]1CC12CCN(CC)CC2)c1ncc(-c2cnc3cc(C(F)(F)F)ccc3c2)[nH]1 [Compound 341]
stdout: 70

stdin: Any idea what EC50 came out for CCC(=O)CCCCC[C@H](NC(=O)[C@H]1CC12CCN(C)CC2)c1ncc(-c2cc3ccccc3nc2OC)[nH]1 (single isomer, unassigned) [Compound 321] on KARN cells (Jurkat 2C4)?
stdout: 83

These measurements were taken from patent US12590099B2.
